As shown below, each of these binders has a reported BMAX Geo Mean value.
# assayed-target: T1, human OX40 (CD134), full length, expressed on cells (activated human T cells); EL4-OX40 and CHO-OX40 … (human, UniProt P43489 29-277)
# T1 construct: also called TNFRSF4; surface expressed OX40
# T1 sequence: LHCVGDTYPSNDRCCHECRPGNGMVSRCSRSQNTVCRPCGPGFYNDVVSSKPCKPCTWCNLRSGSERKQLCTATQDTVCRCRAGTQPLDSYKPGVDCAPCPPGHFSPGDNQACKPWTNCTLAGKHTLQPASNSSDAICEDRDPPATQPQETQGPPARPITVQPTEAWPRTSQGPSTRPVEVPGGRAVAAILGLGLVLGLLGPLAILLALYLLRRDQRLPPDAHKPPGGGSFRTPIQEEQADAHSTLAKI
# assay-info: flow cytometry titration on activated human T cells, anti-human IgG-PE

Task item: So what's the measured BMAX Geo Mean for this one? 112Y131 human anti-human OX40 monoclonal antibody (hybridoma ATCC No. PTA-7218) (antibody, V domains shown) VH: QITLKESGPTLVKPTQTLTLTCTFSGFSLSTSGVGVGWIRQPPGKALEWLALIYWDDHSPYSPSLKSRLTITKDTSKNQVVLTMTNMDPVDTATYYCARTRGAFDIWGQGTMVTVSS VL: EIVLTQSPATLSLSPGERATLSCRASQGVSSYLAWYQQKPGQAPRLLIYDASNRATGIPARFSGSGPGTDFTLTISSLEPEDFAVYYCQQRSNWHPTFGQGTKVEIK
Reply: 171 geometric mean fluorescence

Task item: Which BMAX Geo Mean value is on record for 112Z5 human anti-human OX40 monoclonal antibody (hybridoma ATCC No. PTA-7216) (antibody, V domains shown) VH: VVSTQSTGGGLVQPGRSLRLSCAASGFTLDDYGMHWVRQAPGKGLEWVSGISWNSDSIGYVDSVKGRFTISRDNAKNSLYLQMNSLRVEDTALYYCVKDISGWYSFDYWGQGTLVTVSS VL: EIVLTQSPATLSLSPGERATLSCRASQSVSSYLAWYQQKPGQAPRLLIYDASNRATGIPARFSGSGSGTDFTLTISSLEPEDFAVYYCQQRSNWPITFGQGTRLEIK ?
Reply: 118 geometric mean fluorescence

Task item: Give its BMAX Geo Mean value. Item: 112F32 human anti-human OX40 monoclonal antibody (hybridoma ATCC No. PTA-7217) (antibody, V domains shown) VH: GVQLVESGGGLVQPGGSLRLSCAASGFTFSSYSMNWVRQAPGKGLEWVSYISSSSSTIYYADSVKGRFTISRDNAKNSLYLQMNSLRDEDTAVYYCARGVYHNGWSFFDYWGQGTLLTVSS VL: DIQMTQSPSSLSASVGNRVTITCRASQDISSWLAWYQQKPEKAPKSLIYAASSLQSGVPSRFSGSGSGTDFTLTISSLQPEDFATYYCQQYNSYPLTFGQGTRLEIKR
Reply: 104 geometric mean fluorescence

Task item: Would you kindly share the measured BMAX Geo Mean for 112Y55 human anti-human OX40 monoclonal antibody (hybridoma ATCC No. PTA-7220) (antibody, V domains shown) VH: QITLKESGPTLVKPTQTLTLSCTFSGFSLSTSGVGVGWIRQPPGKALEWLALIHWDDAERYSPSLKSRLTITKDTSKNQVVLTMTNMDLVDTATYYCAHTRGAFDIWGQGTMVTVSS VL: EIVLTQSPGTLSLSPGERAILSCRASQSVSSSFLAWYQQKPGQAPRLLIYGAFSRATGIPDRFSGSGSGTDFTLTISRLEPEDFAVYYCQQYDSSRTFGQGTKVEIK ?
Reply: 162 geometric mean fluorescence
